For each entry below, report its LC retention time value.
- Run description: RP, Waters CORTECS T3, 100 × 2.1 mm, 2.7 µm, 0.3 mL/min, estimated dead time 0.73 min; A: water + 0.1% formic acid, pH 3; B: methanol + 0.1% formic acid, pH 3; gradient (min/%B) 0/0 5/0 25/100 30/100 30.1/0 35/0
- Recorded conditions: stereoisomer not certain
Answers are plain numbers, in min.

For every listed record, write down its LC retention time.
1. CCCCCCSCC(NC(=O)CCC(N)C(=O)O)C(=O)NCC(=O)O (stereo not given)
2. O=C(O)CCCCCCCC(=O)O
3. CC(=O)NC(CCCCN)C(=O)O (stereo not given)

Result string:
1. 16.2
2. 15.4
3. 0.89

Please report LC retention time for every entry that follows.
1. O=CNCC(=O)O
2. N[C@@H](Cc1ccc(O)c([N+](=O)[O-])c1)C(=O)O
3. O=C(O)c1cc(=O)c2cccc(O)c2[nH]1
4. O=C(O)C1(O)CC(O)C(O)C(O)C1 (stereo not given) [QUINATE]
5. Nc1ccn(C2OC(COP(=O)(O)OP(=O)(O)O)C(O)C2O)c(=O)n1 (stereo not given) [CYTIDINE 5'-DIPHOSPHATE]
6. O=c1[nH]c(=O)c2[nH]cnc2[nH]1
7. Nc1ccccc1S(=O)(=O)O
8. Nc1nc2c(ncn2C2OC3COP(=O)(O)OC3C2O)c(=O)[nH]1 (stereo not given) [GUANOSINE 3',5'-CYCLIC MONOPHOSPHATE]

Result string:
1. 0.91
2. 8.03
3. 10.3
4. 0.89
5. 0.89
6. 2.39
7. 2.13
8. 6.99

Respectfully, I request LC retention time for each entry included below.
1. O=c1[nH]c(=O)c2ncn(C3OC(COP(=O)(O)O)C(O)C3O)c2[nH]1 (stereo not given) [XANTHOSINE 5'-MONOPHOSPHATE]
2. O=C(O)c1ccc2ccccc2c1[O-] [1-HYDROXY-2-NAPHTHOATE]
3. CSCCC(NC(C)=O)C(=O)O (racemic)
4. CC(=O)NC(CCC(=O)O)C(=O)O (racemic)

Result string:
0.93
19.1
9.23
2.22

---

- Run description: RP, Waters CORTECS T3, 100 × 2.1 mm, 2.7 µm, 0.3 mL/min, estimated dead time 0.73 min; A: water + 0.1% formic acid, pH 3; B: methanol + 0.1% formic acid, pH 3; gradient (min/%B) 0/5 5/5 25/95 25.1/100 35/100 35.1/5 45/5
- Recorded conditions: stereoisomer not certain
Parameter measured: LC retention time (min)
Give bare numbers, in min.

Take a look at these entries with their results.
CSc1ncnc2nc[nH]c12 | 9.92
N[C@@H](Cc1cc(I)c(O)c(I)c1)C(=O)O | 11.1
O=c1cccc[nH]1 [2-HYDROXYPYRIDINE] | 1.89
CCCCCCCCCCCCCCCC(O)C(N)CO (stereo not given) | 23
Nc1nc2nc[nH]c2c(=O)[nH]1 | 2.38
CC(=O)N[C@@H](Cc1ccccc1)C(=O)O | 12
COC(=O)Cc1c[nH]c2ccccc12 [METHYL INDOLE-3-ACETATE] | 15.7
Nc1nc2c(ncn2C2OC(COP(=O)(O)O)C(O)C2O)c(=O)[nH]1 (stereo not given) [GUANOSINE 5'-MONOPHOSPHATE] | 0.9
O=C([O-])Cc1c[nH]c2ccccc12 [INDOLE-3-ACETATE] | 13.1
COc1ccc2[nH]cc(CCNC(C)=O)c2c1 | 13.1

Please go through the list and note LC retention time for each compound.
1. CC1NC(=O)NC1CCCCCC(=O)O (stereo not given)
2. Cc1cc2nc3c(=O)[nH]c(=O)nc-3n(CC(O)C(O)C(O)CO)c2cc1C (stereo not given)
3. N[C@@H](Cc1ccccc1)C(=O)O
4. O=c1[nH]c(=O)c2[nH]cnc2[nH]1

Result string:
12.6
11.9
12
1.51

For every item in the list below, what is its measured LC retention time?
1. CC(C)=CCNc1ncnc2nc[nH]c12
2. O=C(O)c1cc(=O)c2cccc(O)c2[nH]1
3. Cc1cc2nc[nH]c2cc1C
4. CC(C)(CO)C(O)C(=O)NCCC(=O)O (stereo not given)
5. CSCC1OC(n2cnc3c(N)ncnc32)C(O)C1O (stereo not given)

Result string:
[12, 8.97, 10.5, 5.14, 8.59]

For record CCCCC(CC)COC(=O)c1ccccc1C(=O)OCC(CC)CCCC (stereo not given) [BIS(2-ETHYLHEXYL)PHTHALATE] the listed LC retention time is 26.4
